Molecular target: Histone-lysine N-methyltransferase EHMT2 (Homo sapiens) (UniProt Q96KQ7)
Sequence (Q96KQ7 913-1193 limits assumed): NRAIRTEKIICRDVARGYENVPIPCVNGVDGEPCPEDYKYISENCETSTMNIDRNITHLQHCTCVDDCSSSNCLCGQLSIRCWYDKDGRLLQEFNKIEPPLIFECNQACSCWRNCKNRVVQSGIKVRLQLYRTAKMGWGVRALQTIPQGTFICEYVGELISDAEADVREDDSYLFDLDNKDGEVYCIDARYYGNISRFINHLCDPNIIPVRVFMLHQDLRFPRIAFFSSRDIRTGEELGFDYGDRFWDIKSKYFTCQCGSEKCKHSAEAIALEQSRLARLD
Assay: qHTS Assay for Inhibitors of Histone Lysine Methyltransferase G9a; note: nearly all actives have a fitted effect of over 75% in size
Settings: G9a H3K9 monomethylation, AlphaScreen, 2 h; series mostly up to 59 µM
About 31,000 (8.9%) of roughly 350,000 compounds were called active. About 15% were inconclusive and are not listed. The sample as a whole holds a higher share of actives than the screen did.
outcome measure: outcome

outcome on Histone-lysine N-methyltransferase EHMT2 (Homo sapiens) (UniProt Q96KQ7) for "CCCCNC(=O)CSc1nc2cc3c(cc2c(=O)n1CCCCCC(=O)NCc1ccc2c(c1)OCO2)OCO3" is inactive

Considering COc1cccc(CNC(=O)C2CCC(CNS(=O)(=O)c3cccs3)CC2)c1 (stereo not drawn) , its outcome with Histone-lysine N-methyltransferase EHMT2 (Homo sapiens) (UniProt Q96KQ7) was recorded as inactive

Param item: "Cc1ccc(-c2csc(NC(=O)Cn3[nH]c(=O)c4ccccc4c3=O)n2)cc1" ; param system: Histone-lysine N-methyltransferase EHMT2 (Homo sapiens) (UniProt Q96KQ7); output outcome: inactive

###

Molecular target: Histone-lysine N-methyltransferase EHMT2 (Homo sapiens)
Assay: qHTS Assay for Inhibitors of Histone Lysine Methyltransferase G9a; note: nearly all actives have a fitted effect of over 75% in size
Conditions: G9a H3K9 monomethylation, AlphaScreen, 2 h; series mostly up to 59 µM
The campaign covered roughly 350,000 compounds. About 31,000 (8.9%) were called active. Not shown: some 15% with an inconclusive outcome. Calls come from the whole dose curve; as a rule, active = well fitted inhibition curve with a large enough effect; inconclusive = small, poorly fitted or top-dose-only effect; inactive = no such curve, though single readings can be large or run the other way. Only a selection was taken, and actives are over-represented in it overall.
Allowed answers: active, inactive

Recorded call for CCCC1C(=O)N2C(N(C)C)=Nc3ccc(C)cc3N2C1=O (stereo not drawn) ?
active

What call does the record list for "CN(Cc1ccccc1)S(=O)(=O)c1ccc(F)c(C(=O)Nc2cccc(Cl)c2Cl)c1" ?
inactive

# lookup: test call for "COc1ccc(-c2nc3ccccc3n2CCC(C)C)cc1OC"
inactive

###

Target: Histone-lysine N-methyltransferase EHMT2 (Homo sapiens) (UniProt Q96KQ7)
Test: qHTS Assay for Inhibitors of Histone Lysine Methyltransferase G9a; note: nearly all actives have a fitted effect of over 75% in size; note: potency is the fitted concentration of half-maximal effect
Settings: G9a H3K9 monomethylation, AlphaScreen, 2 h; series mostly up to 59 µM
Method: Methylated lysines, on the N-terminal tails of histone proteins serve as epigenetic markers to recruit factors that can then modify local chromatin structure to lead to functional consequences. […] Methylation of biotinylated-histone peptide is measured through specific antibody-based detection, in conjunction with streptavidin-coated donor and anti-IgG antibody-coated acceptor beads. […]
Out of some 350,000 compounds screened, about 31,000 (8.9%) were called active. About 15% were inconclusive and are not listed. Only a selection was taken, and actives are over-represented in it overall.
outcome measure: Potency

// solved cases for Potency follow
Entry "O=C(Cn1nnc(-c2ccccc2)n1)NC(=O)NC1CCCC1" — recorded Potency = inactive

In plain terms, "COc1cccc(NC(=O)CN(C)C(=O)CSCc2nc3scc(-c4cccs4)c3c(=O)[nH]2)c1" has a documented Potency of inactive

Lab note: measured Potency of "CCOC(=O)c1sc2nc(C)[nH]c(=O)c2c1C" was inactive

Query "COc1ccc(Cn2ccn(Cc3cccc(OC)c3)c(=O)c2=O)cc1" yields Potency of inactive

New cases:
# compound "CCOC(=O)C(=O)Nc1nc(-c2ccccc2)c(CC)s1" ; its Potency = inactive

Reported Potency of "C/C(N)=C(/C#N)C(=O)COC(=O)C1=NN(c2ccccc2)C(=O)CC1" : inactive

Form: compound = O=C1N/C(=N\N=C\c2ccco2)SC1Cc1ccc(F)cc1 (stereo not given) ; Potency = inactive

# Potency (compound: CCCn1nnc2sc3c(c2c1=O)CCC(C)C3 (stereo not given) ) is inactive

Lab note: measured Potency of "CN(C)N=Nc1ccc2nc[nH]c2c1" was 1.78 µM (active)

Sample CCNC(=O)CC1C(=O)N(c2ccc(F)cc2)C(=O)N1Cc1ccc(C)cc1 (stereo not given) ; Potency observed: inactive

###

Molecular target: Histone-lysine N-methyltransferase EHMT2 (Homo sapiens)
Assay: qHTS Assay for Inhibitors of Histone Lysine Methyltransferase G9a; note: nearly all actives have a fitted effect of over 75% in size
Details: G9a H3K9 monomethylation, AlphaScreen, 2 h; series mostly up to 59 µM
Screen size: about 350,000 compounds; about 31,000 (8.9%) were called active. About 15% were inconclusive and are not listed. The call rests on the fitted dose curve; in most records, active means well fitted inhibition curve with a large enough effect; inconclusive means small, poorly fitted or top-dose-only effect; inactive means no such curve, though single readings can be large or run the other way. This excerpt belongs to a sample that is enriched for actives.
# valid calls are YES = active, NO = inactive; nothing else

# fetch the recorded call for "O=C(COc1ccccc1Cl)Nc1ccc2nc(SCC(=O)N3CCCC3)sc2c1" here
NO

Write down the call the test reported for this compound. Item: "O=C(CCCl)Nc1ccc(S(=O)(=O)NCc2ccco2)cc1"
NO

Write down the call the test reported for this compound. Item: C=CCn1c(SCc2c(C)noc2C)nc2sc3c(c2c1=O)CCC(C)C3 (stereo not given)
YES

Write down the call the test reported for this compound. Item: "COc1cc2[nH]c(=S)n(Cc3ccc(F)cc3)c(=O)c2cc1OC"
NO

Which outcome was entered for the compound "COc1ccccc1N1CCN(CC(=O)NCCc2ccc(S(N)(=O)=O)cc2)CC1" in this test?
NO

###

Molecular target: Histone-lysine N-methyltransferase EHMT2 (Homo sapiens)
Test: qHTS Assay for Inhibitors of Histone Lysine Methyltransferase G9a; note: nearly all actives have a fitted effect of over 75% in size
Conditions: G9a H3K9 monomethylation, AlphaScreen, 2 h; series mostly up to 59 µM
In all, about 350,000 compounds went through this assay and about 31,000 (8.9%) were called active. Inconclusive results (about 15%) are left out. Calls come from the whole dose curve; as a rule, active = well fitted inhibition curve with a large enough effect; inconclusive = small, poorly fitted or top-dose-only effect; inactive = no such curve, though single readings can be large or run the other way. The sample holds actives, similar compounds and a random draw of the others, so the mix is not that of the screen.
Your answer must be one of the following: active, inactive

Tell me the recorded outcome of this test for "COc1ccccc1CNCc1ccc(C(=O)O)s1" .
inactive

I'd appreciate the recorded outcome for "Cc1ccc(S(=O)(=O)Nc2nc3ccccc3s2)cc1[N+](=O)[O-]" from this test.
inactive

I would be grateful if you could indicate the recorded call for "CC(C)CC(=O)N1CCN(Cc2cccc(Cl)c2)CC1" .
active

Which outcome was entered for the compound "C=CCNC(=S)N/N=C/c1ccc(OCc2ccccc2)cc1" in this test?
inactive

Recorded test outcome, item CC(CC(=O)N1CCN(c2ccccc2)CC1)c1ccccc1 (configuration not stated)
inactive

Called result for "Cc1cc(NC(=O)c2ccccc2C)no1"
inactive

Give the logged outcome of this assay for the following compound: "Cc1ccc2c(=O)c(C(=O)c3ccc(Cl)cc3)cn(CC(=O)NC3CCCCC3)c2n1"
inactive

###

Exercise: for every item that follows, state its recorded activity, negative = inhibition.
Target: Histone-lysine N-methyltransferase EHMT2 (Homo sapiens)
Assay: qHTS Assay for Inhibitors of Histone Lysine Methyltransferase G9a; note: nearly all actives have a fitted effect of over 75% in size; for activity, negative = inhibition: % is set by controls: 0 for no effect and ±100 for the full control effect
Settings: G9a H3K9 monomethylation, AlphaScreen, 2 h; series mostly up to 59 µM
Among all 350,000 compounds or so, about 31,000 (8.9%) were called active. Not shown: some 15% with an inconclusive outcome. Shown is part of a subset that was picked to be rich in actives.

For record "O=C(CCc1nnc(Cc2ccc3c(c2)OCO3)o1)NCCc1ccccc1Cl" the listed activity, negative = inhibition is 27.8% [at 0.501 µM] (inactive)

The value of activity, negative = inhibition measured for the compound Cc1cccc(C(=O)OC(C)C(=O)NC2CCCc3ccccc32)c1O (configuration not stated) turned out to be 18.2% [at 12.7 µM] (inactive)

Value of measured activity, negative = inhibition for the entry "CCN(CC)CCn1cnc2c1c(=O)[nH]c(=O)n2Cc1ccccc1" : 20.1% [at 2.33 µM] (inactive)

activity, negative = inhibition reading for "CCOc1ccc(CCNC(=O)COC(=O)c2ccc(F)c(S(=O)(=O)N3CCOCC3)c2)cc1OCC" : -4.3% [at 0.501 µM] (inactive)

Item: "CCNC(=O)c1cc2n(n1)CCCN(Cc1ccc(C)cc1)C2=O" | activity, negative = inhibition: -1.49% [at 12.7 µM] (inactive)

Record CC(=O)c1sc(NC(=O)CCN2C(=O)C3CC=CCC3C2=O)nc1-c1ccccc1 (configuration not stated) . Reported activity, negative = inhibition: -8.89% [at 2.33 µM] (inactive)

compound CCCc1ccc(C(=O)COC(=O)CN2C(=O)NC3(CCCCC3C)C2=O)cc1 (configuration not stated) , activity, negative = inhibition observed: -4.43% [at 12.7 µM] (inactive)

###

Biological target: Histone-lysine N-methyltransferase EHMT2 (Homo sapiens)
Assay: qHTS Assay for Inhibitors of Histone Lysine Methyltransferase G9a; note: nearly all actives have a fitted effect of over 75% in size
Settings: G9a H3K9 monomethylation, AlphaScreen, 2 h; series mostly up to 59 µM
Out of some 350,000 compounds screened, about 31,000 (8.9%) were called active. Inconclusive results (about 15%) are left out. Calls follow the shape of the dose curve; as a rule, active = well fitted inhibition curve with a large enough effect; inconclusive = small, poorly fitted or top-dose-only effect; inactive = no such curve, though single readings can be large or run the other way. This is one part of a sample in which actives are shown more often than they occur.
Please state which outcome applies, choosing from active, inactive

Short answer needed: outcome of this test for "COc1ccc(-n2cc(-c3ccccc3)c3c(=S)nc[nH]c32)cc1" ?
inactive

Returns: the outcome recorded for "O=C(CNC(=O)c1cccnc1)N/N=C/c1cc(Br)c(O)c(Br)c1" in this assay.
inactive

Hi, sorry to bother you, what did the test record for O=C(Cc1ccc(Cl)cc1)NCC(c1cccs1)S(=O)(=O)c1ccc(Cl)cc1 (configuration not stated) ?
inactive

Name the outcome recorded for CC1=C(C(N)=O)C(c2ccc3c(c2)OCO3)n2nc(-c3cccc(C)c3)nc2N1 (configuration not stated) in the assay.
active

For O=C(CNC(=O)C1COc2ccccc2O1)N/N=C/c1cc(Br)c(O)c(Br)c1 (configuration not stated) , which call appears in the assay record?
active

Any idea what this test logged for CN(Cc1ccccc1F)C(=O)C(Cc1ccccc1)NC(=O)c1ccccc1 (configuration not stated) ?
inactive

What was the test verdict on "CCOc1ccc(Nc2nc3c(S(=O)(=O)c4cccc(Cl)c4)nnn3c3ccsc23)cc1" ?
inactive

Assay result, entry "CN1CCN(c2ccc([N+](=O)[O-])c(Sc3nc4ccccc4[nH]3)c2)CC1" — outcome?
active

Answer briefly: the call reported for "CN(Cc1ccccc1)Cc1ccccc1F" in this assay.
active

Could you please tell me the result logged for "CCCOc1ccc(N/C=C/C(=O)C(C)(C)C)cc1" in this assay?
inactive

State the result this test recorded for "COc1cc(OC)c(N(C)C(=O)c2cc3c(=O)oc4ccccc4c3s2)cc1Cl" .
inactive

Call for entry "COc1cc(OC)cc(-c2nc3nc(C)c(CCC(=O)Nc4ccc(C)cc4)c(C)n3n2)c1" :
inactive
